# assay_name: E. coli DRC41 culture turbidity changes, primary screen, E. coli filamentation inducer project, strain DRC41, OD650, 48 h (AID 1152);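 further: E. coli MC1000 strain DRC41 lacking acrAB efflux pump and sulA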
# applied_conditions: E. coli DRC41 (acrAB sulA), higher = more signal, called active from +8 up or from −8 down
The molecules listed here are annotated with their z-score.
No unit in the answer, only the number.

Reference set, count: 3
molecule | z-score
O=C(NC1CC1)[C@@H]1c2ccccc2C(=O)N(Cc2ccccc2)[C@H]1c1ccc(CO)cc1 | 0.651
C=C(C(=O)CC[C@H](OC(=O)c1cccnc1)c1cccc(OCCO)c1)C(C)C | 0.184
O=C1O[C@@H](c2ccccc2)[C@@H](c2ccccc2)N2[C@@H](c3ccc(O)cc3)[C@]3(C(=O)Nc4ccccc43)[C@@H](C(=O)Nc3nc4ccccc4s3)[C@H]12 | -0.198

Please examine the following record next.
Consider the molecule shown here: O=C1NC(=O)C2C1C=CC(C(O)c1cc(C(F)(F)F)cc(C(F)(F)F)c1)N2Nc1ccc(Cl)cc1Cl (centres undefined) What is its recorded z-score?
-2.29

###

# assay_name: binders of probe aFGF2 on microarray, primary screen, stem cell growth factor project, biochemical, small-molecule microarray, fluorescence 635/667 (AID 1067);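 further: measures binding of biotinylated aFGF2 protein to printed compounds on slides; z-score merges feature fluorescence and signal-to-noise across triplicate slides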
# applied_conditions: higher = more signal
Think of -0.07 as a floor: if composite z-score stands on it or above, it is t; beneath it, f.

molecule | classification
Cc1ccc(S[C@]2(C(=O)O)CC(=O)N(Cc3ccccc3Cl)[C@@H]2c2ccc(CO)cc2)cc1 | f
Cc1ccc(C(C)CC(O)C2C=CC3C(=O)N(c4ccccc4)C(=O)C3N2Nc2ccc(C(C)C)cc2)o1 (configuration not stated) | t
COc1ccc([Si](C)(C)[C@H]2[C@H](CC(=O)N3Cc4ccccc4C[C@H]3CO)O[C@@]3(C(=O)N(Cc4cccc(N5CCCCC5=O)c4)c4ccccc43)[C@@H]2C)cc1 | t
CC(C)CNC(=O)[C@@]1(c2ccc([N+](=O)[O-])cc2)CC(=O)N(C2CCCCC2)[C@@H]1c1ccc(CO)cc1I | f

Given `COc1ccc([Si](C)(C)[C@H]2[C@H](CCn3cc([C@H](O)c4ccccc4)nn3)O[C@@]3(C(=O)N(Cc4ccc(N5CCOC5=O)cc4)c4ccccc43)[C@@H]2C)cc1` , state whether its composite z-score is at least -0.07.
f

Check if composite z-score >= -0.07 (inclusive). Item: `O=C1C[C@]2(c3ccc([N+](=O)[O-])cc3)C(=O)N(Cc3ccccc3)c3cc(CO)ccc3[C@H]2N1CC12CC3CC(CC(C3)C1)C2`
t

Has `CN(C)CCCCNC(=O)[C@H]1C[C@H]2C(=O)N3CCC[C@H]3C(=O)N2[C@H]1c1ccc(O)cc1` a recorded composite z-score greater than or equal to -0.07?
f

###

# experimental_system: Neurogenic locus notch homolog protein 2 (Homo sapiens) (UniProt Q04721)
# Sequence (Q04721 whole entry, looked up): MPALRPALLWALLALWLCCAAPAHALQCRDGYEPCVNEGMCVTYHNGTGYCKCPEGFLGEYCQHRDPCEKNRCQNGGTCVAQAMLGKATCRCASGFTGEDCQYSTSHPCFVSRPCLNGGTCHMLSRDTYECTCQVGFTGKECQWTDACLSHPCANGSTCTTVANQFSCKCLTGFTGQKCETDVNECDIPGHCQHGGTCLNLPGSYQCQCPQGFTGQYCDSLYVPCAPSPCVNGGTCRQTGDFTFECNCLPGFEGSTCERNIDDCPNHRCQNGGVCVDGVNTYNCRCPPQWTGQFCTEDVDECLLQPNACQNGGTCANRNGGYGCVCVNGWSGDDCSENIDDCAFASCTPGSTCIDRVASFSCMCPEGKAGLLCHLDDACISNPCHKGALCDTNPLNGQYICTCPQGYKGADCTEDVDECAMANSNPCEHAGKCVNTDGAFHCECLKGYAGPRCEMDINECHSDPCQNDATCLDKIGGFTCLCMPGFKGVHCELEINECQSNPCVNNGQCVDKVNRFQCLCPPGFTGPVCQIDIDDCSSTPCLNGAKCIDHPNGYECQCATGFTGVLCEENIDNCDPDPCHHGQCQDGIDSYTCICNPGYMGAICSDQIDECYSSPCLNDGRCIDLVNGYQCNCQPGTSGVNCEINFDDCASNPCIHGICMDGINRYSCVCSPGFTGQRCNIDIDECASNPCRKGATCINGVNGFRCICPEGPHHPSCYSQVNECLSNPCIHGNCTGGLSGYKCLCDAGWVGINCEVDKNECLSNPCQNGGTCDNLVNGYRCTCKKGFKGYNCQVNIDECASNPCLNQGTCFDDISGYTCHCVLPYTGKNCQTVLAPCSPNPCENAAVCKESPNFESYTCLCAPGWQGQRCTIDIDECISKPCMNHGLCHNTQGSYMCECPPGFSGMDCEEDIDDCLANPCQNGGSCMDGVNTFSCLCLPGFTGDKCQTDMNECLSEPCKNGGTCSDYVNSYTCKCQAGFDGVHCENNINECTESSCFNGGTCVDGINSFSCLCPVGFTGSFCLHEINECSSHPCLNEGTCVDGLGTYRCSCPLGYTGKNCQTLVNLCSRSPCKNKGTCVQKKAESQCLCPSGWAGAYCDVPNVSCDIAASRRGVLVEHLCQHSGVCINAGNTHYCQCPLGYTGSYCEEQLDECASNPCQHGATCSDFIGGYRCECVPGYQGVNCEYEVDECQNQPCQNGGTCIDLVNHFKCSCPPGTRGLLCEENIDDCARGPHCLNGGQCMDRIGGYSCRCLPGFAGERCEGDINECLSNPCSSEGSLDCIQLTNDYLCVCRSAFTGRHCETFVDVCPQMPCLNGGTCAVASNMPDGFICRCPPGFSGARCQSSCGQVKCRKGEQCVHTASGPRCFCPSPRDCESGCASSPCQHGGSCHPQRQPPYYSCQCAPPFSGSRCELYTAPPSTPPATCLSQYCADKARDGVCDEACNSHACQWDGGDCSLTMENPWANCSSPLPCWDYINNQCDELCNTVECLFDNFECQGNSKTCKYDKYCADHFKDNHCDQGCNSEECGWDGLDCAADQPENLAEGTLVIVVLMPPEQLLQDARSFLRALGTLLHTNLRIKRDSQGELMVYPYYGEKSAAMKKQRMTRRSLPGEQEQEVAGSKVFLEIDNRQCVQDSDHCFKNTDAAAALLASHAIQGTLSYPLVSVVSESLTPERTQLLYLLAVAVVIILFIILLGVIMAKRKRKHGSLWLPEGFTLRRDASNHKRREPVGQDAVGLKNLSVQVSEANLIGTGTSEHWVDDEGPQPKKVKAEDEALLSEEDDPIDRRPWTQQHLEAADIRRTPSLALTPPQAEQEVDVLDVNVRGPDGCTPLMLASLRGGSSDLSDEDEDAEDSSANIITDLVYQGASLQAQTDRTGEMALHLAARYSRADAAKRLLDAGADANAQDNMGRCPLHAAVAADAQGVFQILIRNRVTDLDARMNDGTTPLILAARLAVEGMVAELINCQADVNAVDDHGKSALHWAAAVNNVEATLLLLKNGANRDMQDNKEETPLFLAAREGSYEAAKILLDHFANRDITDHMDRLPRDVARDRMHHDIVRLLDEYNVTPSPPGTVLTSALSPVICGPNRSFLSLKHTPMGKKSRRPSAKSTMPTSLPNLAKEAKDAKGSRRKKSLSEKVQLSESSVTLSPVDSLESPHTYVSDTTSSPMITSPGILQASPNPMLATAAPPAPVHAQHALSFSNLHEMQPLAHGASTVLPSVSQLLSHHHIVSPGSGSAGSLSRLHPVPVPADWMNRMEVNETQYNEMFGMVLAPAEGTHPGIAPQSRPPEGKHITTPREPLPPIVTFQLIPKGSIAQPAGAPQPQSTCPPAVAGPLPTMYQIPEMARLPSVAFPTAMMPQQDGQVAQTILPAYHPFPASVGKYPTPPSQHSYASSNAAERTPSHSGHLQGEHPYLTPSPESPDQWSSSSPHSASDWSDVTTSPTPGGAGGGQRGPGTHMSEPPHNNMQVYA
# assay_name: Notch2 binders on small-molecule microarrays, primary screen, biochemical, small-molecule microarray, 635 nm fluorescence, stem cell growth factors (AID 1073)
# applied_conditions: Notch2 binding, higher = more signal
Entries and their composite z-score
// return just the number, without any unit appended

These recorded examples may help you get a feel for the data.
compound | value_type | endpoint_result
Cc1ccc(S[C@]2(C(=O)O)CC(=O)N(Cc3ccccc3Cl)[C@@H]2c2ccc(CO)cc2)cc1 | composite z-score | -0.72
NC(=O)N1C(=O)C2C(C1=O)C1C=C(CCCO)C2C(c2cccs2)N1Cc1cc2c(cc1Br)OCO2 (configuration not stated) | composite z-score | 0.0449
COCCOC(=O)N1C(=O)[C@@]2(c3cc(C#Cc4ccc(OC)cc4)ccc31)[C@H](C(=O)N1CCN(c3ncccn3)CC1)[C@H]1C(=O)O[C@H](c3ccccc3)[C@H](c3ccccc3)N1[C@@H]2c1ccccc1OCCO | composite z-score | 0.711
O=C1NC(=O)C2C1C=CC(C(O)c1cc(C(F)(F)F)cc(C(F)(F)F)c1)N2Nc1ccc(Cl)cc1Cl (configuration not stated) | composite z-score | 0.351
C=CC1c2cc(O)c(OC)cc2CCN1Cc1sc2ccccc2c1Cl (configuration not stated) | composite z-score | 1.2
COCCOC(=O)N1C(=O)[C@@]2(c3cc(C#CC4(O)CCCCCC4)ccc31)[C@H](C(N)=O)[C@H]1C(=O)O[C@H](c3ccccc3)[C@H](c3ccccc3)N1[C@@H]2c1ccccc1OCCO | composite z-score | 1.25
C#CCNC(=O)[C@H](Cc1ccccc1)NC(=O)[C@@H](N=[N+]=[N-])C(C)C | composite z-score | 1.04
COCCOC(=O)N1C(=O)[C@@]2(c3cc(C#CC4(O)CCCCCC4)ccc31)[C@H](C(N)=O)[C@H]1C(=O)O[C@H](c3ccccc3)[C@H](c3ccccc3)N1[C@@H]2c1ccc(O)cc1 | composite z-score | 0.618

Reported composite z-score for `COC(=O)[C@@]1(Cc2ccc(F)cc2)[C@H]2c3cc(C(=O)N4CCCC4)n(CCc4c[nH]c5ccc(OC)cc45)c3C[C@H]2CN1C(=O)c1ccccc1` : what is it?
1.58

Bench note: what composite z-score did `Cc1ccc(S[C@]2(C(=O)NCCN3CCOCC3)CC(=O)N(Cc3ccccc3C(F)(F)F)[C@@H]2c2ccc(CO)cc2I)cc1` show?
-0.103

Given the compound `CC(C)C(=C=CC[C@@H](O)c1ccccc1OCCO)C[C@@H](O)COCc1ccccc1` , what is its reported composite z-score?
0.429

Which composite z-score reading was recorded for the compound `CCCNC(=O)[C@@]1(c2ccc([N+](=O)[O-])cc2)CC(=O)N(C2CCCCC2)[C@@H]1c1ccc(CO)cc1I` ?
0.96

Look up composite z-score: `C=C(CCCC)C(=O)CC[C@@H](OC(=O)c1ccccc1-c1ccccc1C(=O)O)c1cccc(OCCO)c1`
-0.404

Which composite z-score is reported for this compound? CC1CC/C=C\[C@H]2OC34C=CCN(CCN5CCOCC5)C(=O)[C@H]3N(CCO)C(=O)[C@@H]4C2C(=O)O1 (some centres not stated)
-0.807

Look up composite z-score: `C=C(CCCC)/C(=C/C[C@@H](OC(=O)c1ccncc1)c1cccc(OCCO)c1)c1cnc2ccccc2c1`
1.3

State the recorded composite z-score for this entry: `CC(C)C[C@@H]1NC(=O)[C@H]2C[C@@H](C(=O)NCCCCCC[N+](C)(C)C)[C@@H](c3cccc(OCCO)c3)N2C1=O`
-0.356

// lookup composite z-score for `COc1ccc([Si](C)(C)[C@H]2[C@H](CC(=O)N3Cc4ccccc4C[C@H]3CO)O[C@@]3(C(=O)N(Cc4cccc(N5CCCCC5=O)c4)c4ccccc43)[C@@H]2C)cc1`
0.246

Which composite z-score value belongs to `COCCOC(=O)N1C(=O)[C@@]2(c3cc(C#CC4=CCCCC4)ccc31)[C@H](C(=O)N1CCN(c3ncccn3)CC1)[C@H]1C(=O)O[C@H](c3ccccc3)[C@H](c3ccccc3)N1[C@@H]2c1ccc(O)cc1` ?
1.33

# lookup: composite z-score of `COc1ccc([Si](C)(C)[C@H]2[C@H](CCn3cc([C@H](O)c4ccccc4)nn3)O[C@@]3(C(=O)N(Cc4cccc(N5C(=O)c6cccc7cccc5c67)c4)c4ccccc43)[C@@H]2C)cc1`
-1.65

I have this compound here, `CC(C)(C)OC(=O)CC[C@@]1(C(=O)O)N=C(c2ccc(OCCCO)cc2)O[C@@H]1c1ccccc1` , and I need its recorded composite z-score.
0.347

Endpoint output: composite z-score of CC(C)N1CC=CC23O[C@@H]4C=CCOC(=O)[C@@H]4[C@H]2C(=O)N(C(C)CO)[C@@H]3C1=O (some centres not stated) . Value?
-1.11

Entry under review: `CC(C)(C)OC(=O)CC[C@@]1(C(=O)O)N=C(c2ccc(OCCCO)cc2)O[C@@H]1c1ccccc1CN=[N+]=[N-]` . Reported composite z-score?
0.717

Recorded composite z-score of CC[C@@H]1[C@H]2C3C(=O)N(CC)C(=O)C3CC(=O)[C@H]2[C@H](c2ccc(C)cc2)N1S(=O)(=O)c1ccc(C)cc1 (some centres not stated) , please.
1.44

Requested field: composite z-score. Item: `O=C1O[C@@H](c2ccccc2)[C@@H](c2ccccc2)N2[C@@H](c3ccccc3OCCO)[C@]3(C(=O)Nc4ccc(C#CCCO)cc43)[C@@H](C(=O)Nc3nc4ccccc4s3)[C@H]12`
1.36

// returns reported composite z-score for input `C=C(C(=O)CC[C@H](OC(C)=O)c1cccc(OCCO)c1)C(C)C`
-0.739

Fill blank: measured composite z-score of the compound `COCCOC(=O)N1C(=O)[C@@]2(c3cc(C#CC4(O)CCCCCC4)ccc31)[C@H](c1ccccc1OCCO)N1[C@H](c3ccccc3)[C@H](c3ccccc3)OC(=O)[C@H]1[C@@H]2C(N)=O` is ____.
1.35

Quick check: composite z-score of O=C1NC(=O)C2C1C=CC(C(O)c1ccc(Br)cc1)N2Nc1ccccn1 (configuration not stated) ?
1.39

The reported measurements were obtained from PubChem BioAssay.
